measured.metric: melting point

Field: example entries. Status: answers known.
CSc1cc2c(cn1)c(=O)n(C)c1cc(C)nn21: > 300 °C
Cc1nnc(-c2ccc(O)cc2)o1: 239 °C
Cc1ccc2ncn(C3CCC(=O)NC3=O)c(=O)c2c1 (stereo unspecified): 285 to 287 °C
COc1cc(Cl)c2[nH]c(=O)[nH]c(=O)c2c1OC: 282 to 284 °C
CCNc1nc(-c2cccc(C3=Nc4cc(N(C)C)c(Cl)cc4NC(=O)C3)c2)cs1: 122 to 123 °C

melting point lookup needed for "O=c1[nH]c2ccc(Cl)cc2n1-c1cccc(Cl)c1" , thanks.
112 °C

Next: "CCN(CC)C(=O)c1ccc(C(=O)N2CCN(c3ncccc3NC(C)C)CC2)cc1"
78 to 80 °C

For "Cc1ccc(Oc2c(C)cc([N+](=O)[O-])c(C)c2Cl)c(C)c1" then?
78 to 80 °C

Moving on to "Cc1ccc(NC(=S)NC(=O)c2ccccc2)c(Cl)c1"
143 °C

Try the compound "O=C(C=Cc1ccc(-c2ccc(Cl)cc2)cc1)Nc1ccc(CN2CCCCC2)cc1"
265 to 270 °C

Moving on to NC(=O)c1ccc(F)c2c1OCC(N(CCCc1c[nH]c3c(F)cc(F)cc13)CC1CC1)C2 (stereo unspecified)
124 °C

====

measured.metric: melting point

Report melting point for "FC(F)(F)c1cc(-c2ccc(Cl)c(Cl)c2)nc2c(-c3ccccn3)cnn12" please.
188 °C

Record: "Cc1ccc(Cn2c(-c3ccc(C(O)(C(F)(F)F)C(F)(F)F)cc3)cc3ccccc3c2=O)cc1"
267 to 268 °C

// query: "Cc1ccc(NS(=O)(=O)c2ccccc2)cc1"
118 to 119 °C

Quick one: "COc1noc2c(C)cc(C#CCCN3CCOC3=O)cc12"
94 to 95 °C

Then "COC(=O)c1cc(-c2ccc(OC)c(OC)c2)nn(CC2CC2)c1=O" ?
136 to 137 °C

Ok, now "Cc1nccn1-c1cccc(OS(N)(=O)=O)c1"
197 to 200 °C

And for "CCCCCCCCCC(=O)COS(=O)(=O)c1ccc(Cl)cc1" ?
51 to 51.5 °C

# repeat for "Cc1ccc(I)c(CO)c1"
82 to 85 °C

Next: "COc1cc(CNc2n[nH]c3ncnc(Nc4cccc(Cl)c4)c23)cc(OC)c1"
208 to 209 °C

Continue with COc1ccc(C(=O)N2CCC(CCN3CCC(Nc4nc5ccccc5[nH]4)CC3)(c3ccccc3)C2)c(OC)c1OC (stereo not given)
112 to 119 °C

====

measured.metric: melting point

Example entries and their recorded answers appear below.
Clc1cccc2c1C1(CO1)c1cccc(Cl)c1C21CO1 (stereo not drawn): 172 to 178 °C
Cc1cc(Br)cnc1CCCCNC1=NS(=O)N=C1NCc1ccccc1 (stereo not drawn): 175 to 176 °C
CCOC(=O)C1=C(COCCO)NC(C)=C(C(=O)OC)C1c1ccccc1Cl (stereo not drawn): 125 to 130 °C

What value of melting point has been recorded for this entry: "O=C1NC(=S)S/C1=C\c1ccc(COc2ccc(C(=O)c3ccccc3)cc2)cc1"
244 to 246 °C

Would you mind doing "C#Cc1c(C(C)C)cc(-c2ccccc2)nc1-c1ccc(F)cc1" as well?
121 to 124 °C

How about this compound: CN(C)C(=O)[C@@H]1C[C@H](C(=O)OC(C)(C)C)N[C@@H]1c1ccccc1 (racemic)
97 °C
